Target: UniProtKB Q13133
Sequence (Q13133 164-447): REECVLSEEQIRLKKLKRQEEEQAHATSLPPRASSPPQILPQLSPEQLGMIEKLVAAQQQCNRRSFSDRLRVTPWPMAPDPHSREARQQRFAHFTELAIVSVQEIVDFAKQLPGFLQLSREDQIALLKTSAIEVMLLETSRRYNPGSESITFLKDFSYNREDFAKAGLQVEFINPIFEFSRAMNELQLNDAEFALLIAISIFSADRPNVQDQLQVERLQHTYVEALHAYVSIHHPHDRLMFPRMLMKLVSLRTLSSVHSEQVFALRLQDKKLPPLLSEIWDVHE
Measure: IC50 (nM)
Your answer should be a plain number; it is taken to be in nM.

Item Cc1noc(C)c1CN(Cc1ccc(-c2cccc(S(C)(=O)=O)c2)s1)S(=O)(=O)c1ccccc1C(F)(F)F has what recorded IC50?
60.5

Here is the next compound: COCCN(Cc1ccc(-c2cccc(S(C)(=O)=O)c2)s1)S(=O)(=O)c1ccccc1C(F)(F)F
975

Another compound to check: CS(=O)(=O)c1cccc(-c2ncc(CN(Cc3ccccc3)S(=O)(=O)c3ccccc3Cl)s2)c1
2700

Then this compound: CC(C)CN(Cc1ccc(-c2cccc(S(C)(=O)=O)c2)s1)S(=O)(=O)c1cccs1
605

Now consider CS(=O)(=O)c1cccc(-c2ccc(CN(C(=O)c3ccccc3)S(=O)(=O)c3ccccc3Cl)s2)c1 .
1570

Next up: CC(C)CN(Cc1cccc(-c2cccc(S(C)(=O)=O)c2)c1)S(=O)(=O)C(C)C
2270

What about this compound? CCS(=O)(=O)N(Cc1ccc(-c2cccc(S(C)(=O)=O)c2)s1)CC(C)C
25000

Try CC(C)CN(Cc1ccc(-c2cccc(S(C)(=O)=O)c2)cn1)S(=O)(=O)c1ccccc1Cl next.
425

Similarly, CS(=O)(=O)c1cccc(-c2ccc(CN(CC3OCCO3)S(=O)(=O)c3ccccc3C(F)(F)F)s2)c1 ?
820

Proceed to CC(C)CN(Cc1cc(-c2cccc(S(=O)(=O)NC(C)(C)C)c2)cs1)S(=O)(=O)c1ccccc1Cl
17700

----------
Target: human LXR alpha (Homo sapiens, UniProt Q13133)
Sequence (Q13133 164-447): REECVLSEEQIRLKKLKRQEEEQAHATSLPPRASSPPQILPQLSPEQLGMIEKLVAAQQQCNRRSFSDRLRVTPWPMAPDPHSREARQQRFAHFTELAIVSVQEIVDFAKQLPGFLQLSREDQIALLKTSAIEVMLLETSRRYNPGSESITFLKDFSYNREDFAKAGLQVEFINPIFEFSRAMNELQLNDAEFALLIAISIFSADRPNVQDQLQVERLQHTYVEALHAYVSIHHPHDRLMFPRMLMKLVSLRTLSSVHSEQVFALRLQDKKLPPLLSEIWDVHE
Measure: pIC50
API: returns pIC50 as number; meaning -log10 of concentration in mol/L.

Query pIC50 on human LXR alpha (Homo sapiens, UniProt Q13133) for CC(C)S(=O)(=O)N(Cc1cccc(-c2cccc(S(C)(=O)=O)c2)c1)Cc1ccccc1F
6.21

Could you do the same for CC(C)CN(Cc1cnc(-c2cccc(S(C)(=O)=O)c2)s1)S(=O)(=O)c1ccccc1Cl , please?
5.06

Query COc1ccc(Cl)cc1S(=O)(=O)N(Cc1ccc(-c2cccc(S(C)(=O)=O)c2)s1)CC(C)C next
5.82

Same read-out for CC(C)CN(Cc1ccc(-c2cccc(S(C)(=O)=O)c2)s1)S(=O)(=O)c1c(Cl)cccc1Cl ?
5.84

Ok, now CS(=O)(=O)c1cccc(-c2ccc(CN(C(=O)c3ccccc3)S(=O)(=O)c3cccc(Cl)c3)s2)c1
5.67

Please do the same for CCN(CC)C(=O)CN(Cc1ccc(-c2cccc(S(C)(=O)=O)c2)s1)S(=O)(=O)c1ccccc1C(F)(F)F as well.
5.62

Thanks! And CS(=O)(=O)c1cccc(-c2ccc(CN(CC3CCCO3)S(=O)(=O)c3ccccc3C(F)(F)F)s2)c1 (stereo not drawn) ?
6.10

Record: CC(C)CN(Cc1ccc(-c2cccc(S(C)(=O)=O)c2)s1)S(=O)(=O)c1ccccc1C(F)(F)F
5.84

Can you handle CC(C)CN(Cc1ccc(-c2cccc(S(C)(=O)=O)c2)s1)S(=O)(=O)c1ccccc1F next?
5.65

Proceed to CC(C)CN(Cc1cccc(-c2cccc(S(C)(=O)=O)c2)c1)S(=O)(=O)c1ccccc1Cl
7.59

What do you get for CC(C)CN(Cc1cc(-c2cccc(S(N)(=O)=O)c2)cs1)S(=O)(=O)c1ccccc1Cl ?
7.07

Then this compound: CC(C)CN(Cc1ccc(-c2cccc(S(C)(=O)=O)c2)s1)S(=O)(=O)c1ccccc1C#N
4.80

Same read-out for CS(=O)(=O)c1cccc(-c2ncc(CN(C(=O)c3ccccc3)S(=O)(=O)c3ccccc3Cl)s2)c1 ?
4.56

Then CS(=O)(=O)c1cccc(-c2ccc(CN(Cc3ccccc3)S(=O)(=O)c3cccc(Cl)c3)s2)c1 ?
5.37

Now the compound CC(C)CN(Cc1ccc(-c2cccc(S(C)(=O)=O)c2)s1)S(=O)(=O)c1ccccc1Cl
5.93

----------
Target: UniProtKB P55055
Sequence (P55055 155-460): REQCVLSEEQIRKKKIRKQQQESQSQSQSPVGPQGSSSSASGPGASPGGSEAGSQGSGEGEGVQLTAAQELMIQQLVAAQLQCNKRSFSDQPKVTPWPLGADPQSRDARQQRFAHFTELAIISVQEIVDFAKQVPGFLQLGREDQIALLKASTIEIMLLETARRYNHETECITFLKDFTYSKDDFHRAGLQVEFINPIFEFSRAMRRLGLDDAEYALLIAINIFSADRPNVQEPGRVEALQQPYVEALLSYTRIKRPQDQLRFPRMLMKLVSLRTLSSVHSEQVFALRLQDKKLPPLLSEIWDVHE
Measure: IC50
Don't forget the unit after the number, please.

What IC50 appears in the records for this compound with UniProtKB P55055? CC(C)CN(Cc1ccc(-c2cccc(S(C)(=O)=O)c2)s1)S(=O)(=O)c1ccccc1Cl
102 nM

Now consider CC(C)CN(Cc1cncc(-c2cccc(S(C)(=O)=O)c2)c1)S(=O)(=O)c1ccccc1Cl .
30 nM

Do the same for CC(C)(C)OC(=O)CN(Cc1ccc(-c2cccc(S(C)(=O)=O)c2)s1)S(=O)(=O)c1ccccc1C(F)(F)F please
11.5 nM

----------
Molecular target: UniProt P55055
Sequence (P55055 155-460): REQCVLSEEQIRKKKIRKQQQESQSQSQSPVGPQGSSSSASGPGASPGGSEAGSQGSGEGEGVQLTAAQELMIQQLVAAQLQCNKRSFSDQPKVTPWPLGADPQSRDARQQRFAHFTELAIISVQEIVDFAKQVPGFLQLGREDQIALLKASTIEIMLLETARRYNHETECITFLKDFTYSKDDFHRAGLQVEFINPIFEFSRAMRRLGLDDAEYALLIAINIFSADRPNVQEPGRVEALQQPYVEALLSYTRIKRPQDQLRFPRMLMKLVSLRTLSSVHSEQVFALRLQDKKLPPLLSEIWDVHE
Measure: log10(IC50) (log10 of the value in nM)
Values reflect log10 of reported IC50 (nM).

Param item = CS(=O)(=O)c1cccc(-c2ccc(CN(C(=O)c3ccccc3)S(=O)(=O)c3ccccc3Cl)s2)c1 [Example 6] ; retrieve measured log10(IC50).
1.66

Next up: CC(C)CN(Cc1ccc(-c2cccc(S(C)(=O)=O)c2)cc1F)S(=O)(=O)c1ccccc1Cl [Example 42]
0.83

Please answer likewise for CCCCS(=O)(=O)N(Cc1ccc(-c2cccc(S(C)(=O)=O)c2)s1)CC(C)C [Example 25]
1.90

What about this molecule? CC(C)CN(Cc1ccc(-c2cccc(S(C)(=O)=O)c2)s1)S(=O)(=O)c1ccccc1C(F)(F)F [Example 31]
1.93

Try CS(=O)(=O)c1cccc(-c2ccc(CN(Cc3ccccc3)S(=O)(=O)c3cccc(Cl)c3)s2)c1 [Example 7] next.
3.18

Please give the result for CC(C)S(=O)(=O)N(Cc1cccc(-c2cccc(S(C)(=O)=O)c2)c1)Cc1ccccc1F [Example 52] too.
1.53

And CC(C)CN(Cc1ccc(-c2cccc(S(C)(=O)=O)c2)s1)S(=O)(=O)CC1CCCCC1 [Example 58] ?
3.13

Now this one: CC(C)CN(Cc1cccc(-c2cccc(S(C)(=O)=O)c2)c1)S(=O)(=O)c1ccccc1Cl [Example 43]
1.28

What about CC(C)N(Cc1ccc(-c2cccc(S(C)(=O)=O)c2)s1)S(=O)(=O)c1ccccc1C(F)(F)F [Example 30] ?
2.67

Input COC(=O)c1ccccc1S(=O)(=O)N(Cc1ccc(-c2cccc(S(C)(=O)=O)c2)s1)CC(C)C [Example 19]
1.77

Try this molecule next: CC(C)CN(Cc1cc(-c2cccc(S(C)(=O)=O)c2)cs1)S(=O)(=O)c1ccccc1Cl [Example 14]
0.34

Try CS(=O)(=O)c1cccc(-c2ncc(CN(Cc3ccccc3)S(=O)(=O)c3ccccc3Cl)s2)c1 [Example 10] next.
1.75

Follow-up entry: CC(C)CN(Cc1cnc(-c2cccc(S(C)(=O)=O)c2)s1)S(=O)(=O)c1ccccc1Cl [Example 11]
2.23

And CS(=O)(=O)c1cccc(-c2ccc(CN(Cc3ccccc3F)S(=O)(=O)c3ccccc3C(F)(F)F)s2)c1 [Example 33] ?
0.82

Now the same for CC(C)CN(Cc1ccc(-c2cccc(S(C)(=O)=O)c2)s1)S(=O)(=O)c1cccc(Cl)c1 [Example 8]
2.75

What about CS(=O)(=O)c1cccc(-c2ccc(CN(CC3CC3)S(=O)(=O)c3ccccc3C(F)(F)F)s2)c1 [Example 32] ?
2.03
